- Tested on: barnyardgrass
- Experiment: Test B pre-/postemergence herbicide test
- Assay type: in vivo, Echinochloa crus-galli
- Assay conditions: 125 g ai/ha; 0 = no effect, 100 = complete control; preemergence
Below, each entry is listed with its recorded Barnyardgrass plant response rating (0 to 100 scale).
Format: numeric value only, no unit, no commentary.

Guide cases for Barnyardgrass plant response rating (0 to 100 scale), answers given:
[[record]]
compound = "CCN(CC)C(=O)c1cccc(NC(=O)c2nn(C(C)(C)C)cc2Cl)c1 [Compound 218]"
assayed_target = "barnyardgrass"
measurement = 0

[[record]]
compound = "C#CCNC(=O)c1cncc(NC(=O)c2cc(C(C)(C)C)nn2CC)n1 [Compound 289]"
assayed_target = "barnyardgrass"
measurement = 0

[[record]]
compound = "CC(=NO)c1cccc(NC(=O)c2nn(C(C)(C)C)cc2C(F)(F)F)c1 [Compound 171]"
assayed_target = "barnyardgrass"
measurement = 0

[[record]]
compound = "CC(=O)c1cccc(NC(=O)c2sc(C(C)(C)C)nc2C)c1 [Compound 196]"
assayed_target = "barnyardgrass"
measurement = 0


Request: Using the record for CCn1nc(C(C)(C)C)cc1C(=O)Nc1ccc(OC)c(OC)c1 [Compound 298] , report its Barnyardgrass plant response rating (0 to 100 scale).
Result: 70

----------
Below, each entry is listed with its recorded Morningglory plant response rating.
- Test system: morningglory
- Experiment: Test B pre-/postemergence herbicide test
- Assay type: in vivo, Ipomoea coccinea
- Assay conditions: 125 g ai/ha; visual rating, scale 0 (no effect) to 100 (complete control); postemergence
- Experimental: […] At the same time, plants selected from these crop and weed species and also blackgrass (Alopecurus myosuroides Huds.), wheat (Triticum aestivum L.) and wild oat (Avena fatua L.) were treated with postemergence applications of test chemicals formulated in the same manner. […] Treated plants and controls were maintained in a greenhouse for 13 to 15 days, after which time all species were compared to controls and visually evaluated. […]
Format: numeric value only, no unit, no commentary.

Guide cases for Morningglory plant response rating, answers given:
[[record]]
compound = "CCn1nc(C(C)(C)C)cc1C(=O)Nc1ccc(OC)c(OC)c1"
assayed_target = "morningglory"
measurement = 60

[[record]]
compound = "CCN(CC)C(=O)c1ccc(F)c(NC(=O)C2CC(C(C)(C)C)=NN2CC)c1 (racemic)"
assayed_target = "morningglory"
measurement = 0

[[record]]
compound = "CCOC(=O)c1cccc(NC(=O)c2nn(C(C)C)nc2C)c1"
assayed_target = "morningglory"
measurement = 0


Request: Using the record for `CCc1nn(C(C)C)nc1C(=O)Nc1cccc(C(=O)N2CCCCC2)c1` , report its Morningglory plant response rating.
Result: 30

Request: Using the record for `CCn1nc(C2(C)CC2)cc1C(=O)Nc1cc(C(=O)N2CC=CC2)ccc1F` , report its Morningglory plant response rating.
Result: 60

Request: Using the record for `CCc1nn(C(C)(C)CC)nc1C(=O)Nc1cccc(OC(F)(F)F)c1` , report its Morningglory plant response rating.
Result: 20

Request: Using the record for `CCc1nn(C(C)(C)C)nc1C(=O)Nc1cccc(C(=O)N(C)C)c1` , report its Morningglory plant response rating.
Result: 20

Request: Using the record for `CCc1nn(C(C)(C)C)nc1C(=O)Nc1cc(C(=O)N2CC=CC2)ccc1F` , report its Morningglory plant response rating.
Result: 50

Request: Using the record for `Cc1nn(C(C)(C)C)nc1C(=O)Nc1cc(C(=O)N(C)C)ccc1F` , report its Morningglory plant response rating.
Result: 20

Request: Using the record for `CCNC(=O)c1ccc(F)c(NC(=O)c2nn(C(C)C)nc2C)c1` , report its Morningglory plant response rating.
Result: 0

----------
- System: lambsquarters
- Experiment: Test B pre-/postemergence herbicide test
- Assay type: in vivo, Chenopodium album
- Assay conditions: 500 g ai/ha; visual rating 0-100, 0 no effect, 100 complete control; preemergence
Observation type: Plant response rating, Lambsquarters

[[record]]
structure_notation = "CC(=NO)c1cccc(NC(=O)c2cc(C(C)(C)C)nn2C)c1"
assayed_target = "lambsquarters"
measurement = 30


Request: Using the record for `CCn1nc(C(C)(C)C)cc1C(=O)Nc1cccc(C(C)=O)c1` , report its Plant response rating, Lambsquarters.
Result: 100

Request: Using the record for `Cn1nc(C(C)(C)C)cc1C(=O)Nc1cccc(C#N)c1` , report its Plant response rating, Lambsquarters.
Result: 100

Request: Using the record for `CCOc1cccc(NC(=O)c2cn(C(C)(C)C)nc2C)c1` , report its Plant response rating, Lambsquarters.
Result: 50

----------
- Tested on: morningglory
- Experiment: Test B pre-/postemergence herbicide test
- Assay type: in vivo, Ipomoea coccinea
- Assay conditions: postemergence, 125 g ai/ha; scale 0 to 100
Below, each entry is listed with its recorded Morningglory plant response rating.
Format: numeric value only, no unit, no commentary.

Guide cases for Morningglory plant response rating, answers given:
[[record]]
compound = "CN(C)C(=O)c1cccc(NC(=O)c2nn(C(C)(C)C)nc2Br)c1 [Compound 429]"
observation_type = "Morningglory plant response rating"
measurement = 70

[[record]]
compound = "CCNC(=S)c1cccc(NC(=O)c2nn(C(C)(C)C)nc2C)c1 [Compound 420]"
observation_type = "Morningglory plant response rating"
measurement = 80

[[record]]
compound = "Cc1nn(C(C)(C)C)nc1C(=O)Nc1cccc(C(=O)N(C)C)n1 [Compound 436]"
observation_type = "Morningglory plant response rating"
measurement = 0

[[record]]
compound = "CCN(C(C)=O)C(=O)c1ccc(F)c(NC(=O)c2cc(C(C)(C)C)nn2CC)c1 [Compound 413]"
observation_type = "Morningglory plant response rating"
measurement = 30


Request: Using the record for Cc1nn(C(C)(C)C)nc1C(=O)Nc1cccc(C(=S)N(C)C)c1 [Compound 419] , report its Morningglory plant response rating.
Result: 80

----------
Below, each entry is listed with its recorded Foxtail, Giant plant response rating.
- System: giant foxtail
- Experiment: Test A pre-/postemergence herbicide test
- Assay type: in vivo, Setaria faberi
- Assay conditions: Preemergence, 500 g ai/ha; visual rating, 0 to 100 scale (0 no effect, 100 complete control)
Format: numeric value only, no unit, no commentary.

[[record]]
structure_notation = "CCn1nc(C(C)(C)C)cc1C(=O)Nc1cccc(C(=O)NCC2CC2)c1"
assayed_target = "giant foxtail"
measurement = 75

[[record]]
structure_notation = "CCn1nc(C(C)(C)C)cc1C(=O)Nc1cccc2c1CCN(C1CCCC1)C2=O"
assayed_target = "giant foxtail"
measurement = 0

[[record]]
structure_notation = "CCN1CCc2c(NC(=O)c3cc(C(C)(C)C)nn3CC)cccc2C1=O"
assayed_target = "giant foxtail"
measurement = 95


Request: Param readout = Foxtail, Giant plant response rating; param system = giant foxtail; param query = `CCCCOc1cccc(NC(=O)c2cc(C(C)(C)C)nn2CC)c1` ; response: value
Result: 50

Request: Param readout = Foxtail, Giant plant response rating; param system = giant foxtail; param query = `CCn1nc(C(C)(C)C)cc1C(=O)Nc1cccc(C(C)=O)c1` ; response: value
Result: 65

----------
- Test system: large crabgrass
- Experiment: Test C pre-/postemergence herbicide test
- Format: in vivo, Digitaria sanguinalis
- Assay conditions: 62 g ai/ha; preemergence
Observation type: Plant response rating (0 = no effect, 100 = complete control), Crabgrass, Large

[[record]]
structure_notation = "CCN1CCc2c(NC(=O)c3cc(C(C)(C)C)nn3CC)cccc2C1=O"
measurement = 10

[[record]]
structure_notation = "CCNC(=O)c1cccc(NC(=O)c2cc(C(C)(C)C)nn2CC(F)(F)F)c1"
measurement = 90

[[record]]
structure_notation = "CCn1nc(C(C)(C)C)cc1C(=O)Nc1cccc(C(=O)NC2CC2)c1"
measurement = 0

[[record]]
structure_notation = "C=CCn1nc(C(C)(C)C)cc1C(=O)Nc1cccc(C(=O)NCC)c1"
measurement = 95

[[record]]
structure_notation = "CCOC(=O)c1cc(NC(=O)c2cc(C(C)(C)C)nn2CC)ccc1OCC"
measurement = 80


Request: Using the record for `CCNC(=O)c1cccc(NC(=O)c2cc(C(C)(C)C)nn2CCF)c1` , report its Plant response rating (0 = no effect, 100 = complete control), Crabgrass, Large.
Result: 10

----------
- Test system: giant foxtail
- Experiment: Test A pre-/postemergence herbicide test
- Assay type: in vivo, Setaria faberi
- Assay conditions: Postemergence, 2000 g ai/ha; 0 to 100 scale, 0 no effect, 100 complete control
Mark 1.0 for reported Plant response rating, Foxtail, Giant of 40 or greater; mark 0.0 for anything smaller.

Answered cases to consult:
[[record]]
structure_notation = "CC(=NO)c1cccc(NC(=O)c2cn(C(C)C)nc2C)c1"
cat = 0.0

[[record]]
structure_notation = "C=CCNC(=O)c1cccc(NC(=O)c2cc(C(C)(C)C)nn2C)n1"
cat = 1.0

[[record]]
structure_notation = "CCNC(=O)c1ccc(F)c(NC(=O)c2cc(C(C)(C)C)nn2CC)n1"
cat = 0.0

[[record]]
structure_notation = "CCc1nc(C(C)(C)C)sc1C(=O)Nc1cccc(C(=O)N(CC)CC)c1"
cat = 0.0


Moving on to another molecule below.
Request: API: above_or_equal(metric=Plant response rating, Foxtail, Giant, cutoff=40) for item `CCN1CCc2c(NC(=O)c3cc(C(C)(C)C)nn3CC)cccc2C1=O`
Result: 1.0
